Recorded protein stability index for the following sequences
Assay: protein stability index of a GFP-peptide fusion (yeast GPS) (PSI 1-4); higher = more stable; sorted into four equal gates, so the index is relative within each strain
Conditions: doa10∆
outcome.measure: protein stability index

RIHRLARYYRTVAVLPP [RPS13]    1.83
MLLANISVARKIYDAFP [DIS3]    1.69
LPAAVSKSLQESGDTQE [RPC82]    2.37
FYKLNMPDEFNTLYTAI [SRP72]    2.5
MNGIQVDINRLKKGEVS [PRE3]    2.15
SSISVMGENEKPDVTYA [RPT3]    2.92
LSDYIPGPYPNEQAARA [CYT1]    2.1
LYQIWIVMVWLKENTYV [YDL116W/NUP84]    1.85
KQQPTMQANKLDSQETP [SWI3]    2.95
TSTKDKNSSTSNTEPIP [MED1]    3.17
TINISLSFSWAILLIIN [NUT1]    1.35
ELDQEYRSCETQDESEI [SMC4]    3.11
SKNCYLSEATESDLYKL [RPB2]    3.02
EGLIRLDNLTEDPNSAA [DIS3]    3.23
ADNGEEYLTLNDFNDLN [MED2]    2.96

---

Recorded protein stability index for the following sequences
Assay: protein stability index of a GFP-peptide fusion (yeast GPS) (PSI 1-4); higher = more stable; sorted into four equal gates, so the index is relative within each strain
Conditions: pdr5∆
outcome.measure: protein stability index

ARAPKYASKAVPHYNRL [RPL25]    3
LKIIHTSVWAGQKRLSQ [PRP8]    1.31
DIIQGNPLMYSGGNNTA [PCI8]    3.13
ITLENITRLCQTLGLES [MED1]    2.28
HNKLNITSDALEGITTT [SMC3]    3.09
TVKENESDSKLQCHISG [UBP6]    3.3
TINLDRFMKGRRSKQLI [RPC82]    2.64
LTSVTNDICSVENYETS [SIR4]    2.35
RDYLVDTLKLRENLHIL [RRP6]    3.29
QCPVKSAEDQLYAITFR [QCR2]    2.83
KIDLASGKITDFIKFDA [RPS4A]    3.21
PKKYKENNTDSARKELE [SMC1]    2.8
KDEIVLSGNSVEDVSQN [RPL9A]    3.52
LCDNFNHFSLSYKDSGL [COR1]    2.7
KAKNPLTHSTPKNFGIG [RPL8B]    3.35
TRVTRLSLQRANVEILA [CSL4]    1.78
QEMIEISNVIKPNQTIM [SRP54]    2.21
EKELKIFTDAGRVYRPL [RPB2]    3.44
MFAYAKEHEPCIIFMDE [RPT4]    2.32
KDFTNKNLIQLISLKLL [SRB8]    1.49
DRELNEVINQMERLDGD [SMC3]    3.29
YVAIVVDPLKSLEDKIL [RRI1]    1.38
MPNIELYLKVIPMDFIR [SSN2]    2.14
KKRRGSRIYKTIKVAGT [SNU114]    1.78
ELALKTLSKTTDSSALT [PRE9]    2.1
SFKLCTLLIAIRGSNRD [YML103C/NUP188]    1.78
RIHVNPSYYGVRDTSPH [BRR2]    1.93
KYLKKRKIGISIDDHPY [RPC31]    1.33
TFLVSNDDEVSQFCYVS [RPN14]    2.55
GMTPCTVSPDFVAATTN [FAS1]    1.98
SQTTQLAGMDVEDALDK [FAS2]    3.47
NYTGWKAISVGANTSAA [PRE9]    1.36
IRDSIPQMDSFDKDLER [DIS3]    3.32
QTATQLLERGRLRKRVT [SMC2]    3.04
REEAIGFIRGSNKFAEV [SMC3]    2.94
EIEELKSSIQNLNELES [SMC3]    2.06
MSRSLANGIINVKEITE [SMC3]    2.8
IWMRGHGTYFLDNMTYS [RRP4]    2.38
LLKLIEPYVAYGYPSYS [RPL7A]    2.22
LKAKNQEEEGELEHLTK [DSN1]    3.35
RGKDGKLHVAAKLPGHK [YGL100W/SEH1]    3.13
GKKWFEVSQFLIENGAS [NAS6]    1.55
TKPSLRKASCIWLLSYI [ECM29]    1.88
DFTLIPRMASVFENYVK [CDC53]    2.88
ECPAIPIFNYIFTEKIY [YJL039C/NUP192]    1.46
EEYARRLAEFKRRKLDL [SMC4]    3.46
KSMNKSAINQYNRRQDK [SNF2]    2.63
IVPDLIINPHAIPSRMT [RPB2]    2
DRLSLQDRQQLLPLVVS [ECM29]    2.06
MANIPERIINVGVIGPL [SNU114]    2.79
MRFNIEIIADWIWDMNV [BRR2]    2.12
ENDNLDNVSKNALDKLR [YCG1]    3.15
TVFLPMVGLVDPDKLKP [RPT5]    2.66
KGHKFNNTKAGRRKTWK [RPL15A]    2.93
KRVTIQKKDIKLARRLR [HHT1]    2.87
QKSSKENIENEEYVINL [ECM29]    3.32
GAKPAGSTGGLGASFGQ [YGL172W/NUP49]    3.41
EVVSEAINIMNRSNDAL [FAS2]    3.44
TTKILGDKILGNLYSKV [YML103C/NUP188]    2.82
ERQQENLLIQRLNFNQN [SWI3]    3.38
